- run-description: Aqueous stability of the compound in acetate buffer at pH 4 assessed as compound half life measured after 24 hrs by UPLC analysis
- Type: physicochemical
- measurement-context: acetate buffer, pH 4
endpoint-name: half-life (days)

molecule	value-units	half-life
COC(=O)N[C@H](C(=O)N[C@@H](Cc1ccccc1)[C@H](CN(Cc1ccc(-c2ccccn2)cc1)NC(=O)[C@@H](NC(=O)OC)C(C)(C)C)OC(=O)OC(OC(=O)C[C@H](N)Cc1cc(F)c(F)cc1F)C(C)C)C(C)(C)C (stereo in doubt; 3ab)	days	15.7
COC(=O)N[C@H](C(=O)N[C@@H](Cc1ccccc1)[C@H](CN(Cc1ccc(-c2ccccn2)cc1)NC(=O)[C@@H](NC(=O)OC)C(C)(C)C)OC(=O)OC(OC(=O)[C@@H](N)C(C)C)C1CCCCC1)C(C)(C)C (stereo in doubt; 4n)	days	13.9

I: COC(=O)N[C@H](C(=O)N[C@@H](Cc1ccccc1)[C@H](CN(Cc1ccc(-c2ccccn2)cc1)NC(=O)[C@@H](NC(=O)OC)C(C)(C)C)OC(=O)OC(OC(=O)CCN)C(C)C)C(C)(C)C (stereo in doubt; 3z)
II: COC(=O)N[C@H](C(=O)N[C@@H](Cc1ccccc1)[C@H](CN(Cc1ccc(-c2ccccn2)cc1)NC(=O)[C@@H](NC(=O)OC)C(C)(C)C)OC(=O)OC(OC(=O)[C@@H](NC(=O)[C@H](N)C(C)C)C(C)C)C(C)C)C(C)(C)C (stereo in doubt; 6g)
Consider I and II . Which of these has its half-life at a higher number? Answer format: the label of the selected item.
I
